experiment: yeast display, Sf9 membrane polyspecificity reagent, FACS + sequencing; frameworks hold sequencing errors
endpointName: polyreactivity (PSR sort gate)

1. QVQLVESGGGLVQAGGSLRLSCAASGGTFGYYAMGWYRQAPGKERELVAAITSGGSTNYADSVKGRFTISRDNAKNTVYLQMNSLKPEDTAVYYCAARYINRYPKAQPTDRSIYYWGQGTQVTVSS	high polyreactivity
2. QVQLVESAGGLVQAGGSLRLSCAASGRILFGYAMGWYRQAPGKERELVADITSTGSTNYADSVKGRFTISRDNAKNTVYLQMNSLKPEDTAVYYCNVDDTSWTTSGGRFGQVESDYWGQGTQVTVSS	low polyreactivity
3. QVQLVESGGGLVQAGGSLRLSCAASGSISPYYAMGWYRQEHGKEREMVAAISSGGSTYYADSVKGRFTISRDNAKNTVYLQMNSLKPEDTAVYYCAKAYNYLGYYKYLRYGKFCYWGEGTQVTVSS	high polyreactivity
4. QVQLVESGGGLVQAGGSLRLSCAASGSILRIYAMGWYSQAPGKEMELVARITWSGGRTYYADSVKGRFTISRDNAKNTVYLQMNSLKPEDTAVYDCNADLQRWGWEYDYWGQGTQVTVSS	high polyreactivity
5. QVQLVESGGGLVQAGGSLRLSCAASGRILDYYAMGWYRQAPGKERELVAAISRSGSDTYYADSVKGRFTISRDNAKNTVYLQMNSLKPEDTAVYYCAARWSYRSLARYNYWGQGTQVTVSS	low polyreactivity
6. QVQLVESGGGLVQAGGSLRLSCAASGSTFQYYAMGWYRQAPGKEGELVATINSGGSTNYADSVKGRFTISRDNAKNTVYLQMNSLKPEDTAVYYCARRVRYKHYDYWGQGTQVTVSS	high polyreactivity
7. QVQLVESGGGLVQAGGSLRLSCAASGRTFFSYAMGWYRQAPGKERELVAAISRRGSSTYYADSVKGRFTISRDNAKNTVYLQMNSLKPEDTAVYYCAADVVRGSRYNRYGYWGQGTQVTVSS	high polyreactivity
8. QVQLVESGGGLVQAGGILRISCAASGRTSYWYAMAWYRQAPGKERELVADISWSGGSTYYADSVKGRFTISRDNAKNTVYLQMNSLNPEDTAVYYCIGAEQKYSIYYAFDTGPYDYWGQGTQVTVSS	low polyreactivity
9. QVQLVESGGGLVQAGGSLRLSCAASGIIFSQYAMGWYRQAPGKERELVASISSGGRTNYADSVKGRFTISRDNAKNTVYLQMNSLKPEDTAVYYCATRYRYKRYAASVQYDYWGQGTQVTVSS	high polyreactivity
10. QVQIVESGGGLVQAGGSLRLSCAASGSIFFYYSMGWYRQAPGKERELVAAISVGGSTYYADSVKGRFTISRDNAKNTVYLQMNSLKPEDTAVYSFNAVPAKGYVTVVRYYYWGQGTQVTVSS	low polyreactivity
11. QVQLVESGGGLVQAGGSLRLSCAASGSIFVFNAMGWYRQAPGKERELVAAITSGGRTYYADSVKGRFTISRDNAKNTVYLQMNSLKPEDTAVYYCARRYRARGSMYYWGQGTQVTVSS	high polyreactivity
12. QVQLVESGGCIVQAGGSLRLSCAASGITFLSNPMGWYSQAPGKERELVAAIDCRGDSTYYADSVKGRFTISRDNAKNTVYLQMNSLKPEDTAVYYCNADISGSGQWDGYDYWGQGTQVSVSS	low polyreactivity
13. QVQLVESGGGLVQAGGSLRLSCAASGSIFVPYAMGWYRQAPGKERELVAAISYRGGNTYYADSVKGRFTISRDKAKNTVSLQMNSLKPEDTAVYYCNAGVSIGRSRRDDYWGQGTQVTVSS	low polyreactivity
14. QVQLVESGGGLVQAGGSLRLSCAASGSTFNYYAMGWYRQAPGKERELVAAISSRSSRTFYADSVKGRFTISRDNEKNTVYLQMNSLKPEDTAVYYCAVKKRAPDGDYWGQGTQVTVSS	high polyreactivity
15. QVQLVESGGGLVQAGGSLRLSCAASGFTFYGNAMGWYRQAPGKERELVASISTYYADSVKGRFTISRDNAKNTVYLQMNSLKPEDTAVYYCAATHYDRTFYVIYDYWGQGTQVTVSS	low polyreactivity
